Hello, the source for this data is ChEMBL document CHEMBL5058577, in case you need it.

- Tested on: HEK-293T
- Run description: Multiplex assay against HEK293T
- Type: toxicity, cell-based
- Conditions used: human, 48 h, 10 µM, compound concentration 10 uM, replicate 1
Measured property: Population Fragmented Nuclei (%)

Entry smiles: Cc1noc(-c2ccc(-c3ccc(CC(=O)O)cc3)cc2)c1NC(=O)O[C@H](C)c1ccccc1Cl
Population Fragmented Nuclei (%): 10%

Entry smiles: COc1ccccc1N1CCN(C[C@@H](C(=O)NC(C)(C)C)c2ccccc2)CC1.Cl.Cl
Population Fragmented Nuclei (%): 14%

Entry smiles: CN1CCN(c2cc(-c3ccccc3)nc(N)n2)CC1
Population Fragmented Nuclei (%): 17%

Entry smiles: O=C(CCCc1ccccc1)Nc1nc2ccccc2c(=O)s1
Population Fragmented Nuclei (%): 14%

Entry smiles: Cc1onc(-c2ccccc2Cl)c1C(=O)N(C)c1ccc(Cl)cc1
Population Fragmented Nuclei (%): 14%

Okay, next one:
Task item: Request - read-out Population Fragmented Nuclei (%) | tested on HEK-293T | compound Cc1c(CC(=O)O)c2cccnc2n1Cc1ccc(S(C)(=O)=O)cc1C(F)(F)F
Reply: 14%

###

- System: Fibroblast
- Run description: Multiplex assay against human fibroblast
- Type: toxicity, cell-based
- Conditions used: 48 h, 1 µM, compound concentration 1 uM, replicate 1
Measured property: Population Mitochondria Different-Phenotype (%)
The reply should be a number in %, with the unit left off.

The cases that follow already have their Population Mitochondria Different-Phenotype (%) on record.
Entry smiles: CCCCC1=NC2(CCCC2)C(=O)N1Cc1ccc(-c2ccccc2-c2nnn[nH]2)cc1
Assayed target: Fibroblast
Unit of measurement: %
Recorded result: 4
//
Entry smiles: CCCOc1ccc2[nH]cc(C3=CCNCC3)c2n1.Cl
Assayed target: Fibroblast
Unit of measurement: %
Recorded result: 5
//
Entry smiles: Cc1c(CC(=O)O)c2cccnc2n1Cc1ccc(S(C)(=O)=O)cc1C(F)(F)F
Assayed target: Fibroblast
Unit of measurement: %
Recorded result: 4
//
Entry smiles: O=C(CCCc1ccccc1)Nc1nc2ccccc2c(=O)s1
Assayed target: Fibroblast
Unit of measurement: %
Recorded result: 1

Task item: Using the record for CC(=O)Nc1cccc2c1c(Sc1ccc(Cl)cc1)c(C)n2CC(=O)O , report its Population Mitochondria Different-Phenotype (%).
Reply: 6

###

- System: HEK-293T
- Run description: Multiplex assay against HEK293T
- Assay type: toxicity, cell-based
- Conditions used: human, 48 h, 1 µM, compound concentration 1 uM, replicate 1
Measured property: Population Pyknosed Nuclei (%)
The reply should be a number in %, with the unit left off.

The cases that follow already have their Population Pyknosed Nuclei (%) on record.
Compound: CC(C)COc1ccc(CNC(=O)N(Cc2ccc(F)cc2)C2CCN(C)CC2)cc1
Assayed target: HEK-293T
Population Pyknosed Nuclei (%): 8

Compound: CC(C)c1noc(N2CCC(COc3ccc(-c4ccc(S(C)(=O)=O)cc4)nc3)CC2)n1
Assayed target: HEK-293T
Population Pyknosed Nuclei (%): 8

Compound: CC(C)(C)c1cc(NC(=O)Nc2ccc(-c3cn4c(n3)sc3cc(OCCN5CCOCC5)ccc34)cc2)no1
Assayed target: HEK-293T
Population Pyknosed Nuclei (%): 6

Compound: CN(C)C(=O)Cn1cc(-c2ccc(-c3cncc4ccccc34)cc2)cn1
Assayed target: HEK-293T
Population Pyknosed Nuclei (%): 6

Task item: Using the record for NCCc1cn(S(=O)(=O)c2c(Cl)nc3sccn23)c2ccccc12.O=C(O)C(=O)O , report its Population Pyknosed Nuclei (%).
Reply: 6

Task item: Try the compound O=C(NCCN1CCC(n2c(=O)[nH]c3cc(Cl)ccc32)CC1)c1ccc(F)cc1 [HALOPEMIDE]
Reply: 6

Task item: Try the compound Cc1onc(-c2ccccc2Cl)c1C(=O)N(C)c1ccc(Cl)cc1
Reply: 6

Task item: Try the compound Br.CS(=O)(=O)Nc1c(O)ccc2c1CCCC2C1=NCCN1 (centres undefined)
Reply: 7

Task item: Try the compound Cl.N=C(N)NC(=O)Cc1c(Cl)cccc1Cl [GUANFACINE HYDROCHLORIDE]
Reply: 6
